Molecular target: Recombinant human HDAC6 (Homo sapiens, UniProt Q9UBN7)
Construct: full length, MW=159 kDa; GST (N); host or cells: Sf9 insect cells (baculovirus)
Sequence (Q9UBN7 whole entry): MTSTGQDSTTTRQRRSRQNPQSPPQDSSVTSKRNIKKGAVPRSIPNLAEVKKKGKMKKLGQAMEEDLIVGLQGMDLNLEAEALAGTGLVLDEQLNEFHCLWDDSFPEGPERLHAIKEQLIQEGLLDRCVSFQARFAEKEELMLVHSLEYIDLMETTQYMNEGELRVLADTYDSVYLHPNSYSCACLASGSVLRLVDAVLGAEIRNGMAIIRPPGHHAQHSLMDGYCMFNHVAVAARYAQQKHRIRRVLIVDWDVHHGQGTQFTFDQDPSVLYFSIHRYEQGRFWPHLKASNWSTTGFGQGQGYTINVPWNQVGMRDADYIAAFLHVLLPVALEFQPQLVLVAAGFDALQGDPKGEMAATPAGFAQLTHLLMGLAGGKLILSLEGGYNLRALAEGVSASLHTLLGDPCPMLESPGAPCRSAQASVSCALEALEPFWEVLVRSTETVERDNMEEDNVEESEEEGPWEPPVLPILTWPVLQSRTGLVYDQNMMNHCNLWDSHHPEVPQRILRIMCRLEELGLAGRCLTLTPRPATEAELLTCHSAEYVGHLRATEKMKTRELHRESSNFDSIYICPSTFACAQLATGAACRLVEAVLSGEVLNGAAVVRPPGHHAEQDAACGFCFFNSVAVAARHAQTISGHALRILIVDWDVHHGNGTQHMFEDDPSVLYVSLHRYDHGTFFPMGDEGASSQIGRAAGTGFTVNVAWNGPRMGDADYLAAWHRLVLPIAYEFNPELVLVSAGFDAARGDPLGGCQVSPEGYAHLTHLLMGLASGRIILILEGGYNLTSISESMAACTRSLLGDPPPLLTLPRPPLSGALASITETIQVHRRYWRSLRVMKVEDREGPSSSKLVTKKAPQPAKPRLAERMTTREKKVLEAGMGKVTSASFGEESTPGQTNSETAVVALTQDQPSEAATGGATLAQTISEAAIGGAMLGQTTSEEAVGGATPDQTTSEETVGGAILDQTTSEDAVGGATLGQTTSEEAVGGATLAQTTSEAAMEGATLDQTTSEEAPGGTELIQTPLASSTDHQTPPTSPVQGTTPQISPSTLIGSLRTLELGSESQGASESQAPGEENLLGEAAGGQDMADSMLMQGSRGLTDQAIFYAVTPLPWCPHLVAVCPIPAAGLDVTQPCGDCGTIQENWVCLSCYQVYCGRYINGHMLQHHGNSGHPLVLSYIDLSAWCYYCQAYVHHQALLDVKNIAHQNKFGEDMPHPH
Assay: HDAC6 biochemical assay, AMC-labeled peptide substrate
Settings: HDAC6; read-out: HDAC Isoform IC50 (nM) 6
metric: IC50

[
  {
    "molecule": "COc1ccc(N(Cc2ccc(-c3noc(C(F)(F)F)n3)s2)c2cnccn2)nn1",
    "IC50": "≤ 1000 nM"
  }
]

Query: IC50; subject: `CN1CCN(c2ccc(N(Cc3ccc(-c4noc(C(F)(F)F)n4)s3)c3cnccn3)nn2)CC1`
≤ 500 nM

Query: IC50; subject: `CS(=O)(=O)c1cc(N(Cc2ccc(-c3noc(C(F)(F)F)n3)s2)c2cnccn2)ncn1`
≤ 10000 nM

Query: IC50; subject: `Cc1nccc(N(Cc2ccc(-c3noc(C(F)(F)F)n3)s2)c2cnccn2)n1`
≤ 10000 nM

Query: IC50; subject: `Cc1cnc(N(Cc2ccc(-c3noc(C(F)(F)F)n3)s2)c2cc(C(F)(F)F)cnn2)cn1`
≤ 10000 nM

Query: IC50; subject: `COC1CN(C(=O)c2ccc(N(Cc3ccc(-c4noc(C(F)(F)F)n4)s3)c3cnccn3)nn2)C1`
≤ 500 nM

Query: IC50; subject: `O=C(O)c1cnnc(N(Cc2sc(-c3noc(C(F)(F)F)n3)cc2F)c2cnccn2)c1`
≤ 500 nM

Query: IC50; subject: CC(c1ccc(-c2noc(C(F)(F)F)n2)s1)N(c1cnccn1)c1cnccn1 (centres unmarked)
≤ 10000 nM

----------
Target: Human HDAC9 (Homo sapiens)
Construct: amino acids 604-1066 with C-terminal His tag; His (C); host or cells: baculovirus expression system
Sequence (Q9UKV0 604-1066 isoform Q9UKV0-5): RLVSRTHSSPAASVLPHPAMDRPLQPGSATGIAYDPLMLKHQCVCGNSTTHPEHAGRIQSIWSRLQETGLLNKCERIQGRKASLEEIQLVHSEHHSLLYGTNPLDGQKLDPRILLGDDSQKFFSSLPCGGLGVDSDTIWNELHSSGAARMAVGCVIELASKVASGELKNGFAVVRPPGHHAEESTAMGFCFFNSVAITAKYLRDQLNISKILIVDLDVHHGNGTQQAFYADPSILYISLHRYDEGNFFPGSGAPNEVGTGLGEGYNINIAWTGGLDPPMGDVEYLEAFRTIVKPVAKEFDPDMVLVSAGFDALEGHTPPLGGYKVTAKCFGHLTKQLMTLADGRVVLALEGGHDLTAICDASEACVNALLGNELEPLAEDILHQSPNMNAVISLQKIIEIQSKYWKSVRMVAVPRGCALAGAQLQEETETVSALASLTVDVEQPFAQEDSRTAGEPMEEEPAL
Experiment: HDAC9 biochemical assay, class IIa-specific substrate
Conditions: read-out: HDAC Isoform IC50 (nM) 9
metric: IC50

[
  {
    "given smiles": "FC(F)(F)c1cnnc(N(Cc2ccc(-c3noc(C(F)(F)F)n3)s2)c2ccccn2)c1",
    "IC50": "> 10000 nM"
  }
]

Query: IC50; subject: `O=C(c1cnnc(N(Cc2ccc(-c3noc(C(F)(F)F)n3)s2)c2cnccn2)c1)N1CCC12COC2`
≤ 10000 nM

Query: IC50; subject: `N#Cc1cnnc(N(Cc2ccc(-c3noc(C(F)(F)F)n3)s2)c2cnccn2)c1`
≤ 10000 nM

Query: IC50; subject: `FC(F)(F)c1cnnc(N(Cc2ccc(-c3noc(C(F)(F)F)n3)s2)c2cccnn2)c1`
≤ 10000 nM

Query: IC50; subject: `FC(F)(F)c1ccc(N(Cc2ccc(-c3noc(C(F)(F)F)n3)s2)c2cnccn2)nn1`
≤ 10000 nM

----------
The entries below come with measured IC50 values attached.
Target: Human HDAC5 (Homo sapiens, UniProt Q9UQL6)
Construct: full length with C-terminal His tag, MW=51.1 kDa; His (C); host or cells: baculovirus expression system
Sequence (Q9UQL6 656-1122 limits assumed): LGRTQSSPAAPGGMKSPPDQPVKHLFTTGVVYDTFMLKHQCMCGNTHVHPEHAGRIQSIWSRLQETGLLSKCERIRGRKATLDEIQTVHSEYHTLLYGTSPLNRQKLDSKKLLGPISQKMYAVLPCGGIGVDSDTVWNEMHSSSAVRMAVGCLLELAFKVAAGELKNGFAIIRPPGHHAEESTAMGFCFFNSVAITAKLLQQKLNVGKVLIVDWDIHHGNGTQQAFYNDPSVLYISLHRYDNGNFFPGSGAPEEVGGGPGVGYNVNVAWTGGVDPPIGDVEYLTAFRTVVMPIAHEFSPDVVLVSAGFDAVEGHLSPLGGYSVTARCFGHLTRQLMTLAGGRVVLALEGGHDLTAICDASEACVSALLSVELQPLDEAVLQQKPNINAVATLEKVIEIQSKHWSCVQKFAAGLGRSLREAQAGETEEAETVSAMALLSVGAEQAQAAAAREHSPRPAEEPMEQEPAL
Assay: HDAC5 biochemical assay, class IIa-specific substrate
Settings: read-out: HDAC Isoform IC50 (nM) 5

These solved cases illustrate the format of a correct answer.
[
  {
    "given smiles": "Fc1cnc(N(Cc2ccc(-c3noc(C(F)(F)F)n3)s2)c2cnccn2)nc1",
    "target desc": "Human HDAC5 (Homo sapiens, UniProt Q9UQL6)",
    "metric": "IC50",
    "recorded value": "≤ 10000 nM"
  },
  {
    "given smiles": "O=C(c1cnnc(N(Cc2ccc(-c3noc(C(F)(F)F)n3)s2)c2cnccn2)c1)N1C2CCC1COC2",
    "target desc": "Human HDAC5 (Homo sapiens, UniProt Q9UQL6)",
    "metric": "IC50",
    "recorded value": "≤ 1000 nM"
  },
  {
    "given smiles": "Cc1ncc(N(Cc2ccc(-c3noc(C(F)(F)F)n3)s2)c2cnccn2)nc1C",
    "target desc": "Human HDAC5 (Homo sapiens, UniProt Q9UQL6)",
    "metric": "IC50",
    "recorded value": "≤ 10000 nM"
  }
]

// switching to the query molecule
# returns recorded IC50 (system: Human HDAC5 (Homo sapiens, UniProt Q9UQL6)) for `FC(F)(F)c1nc(-c2ccc(CN(c3cnccn3)c3cscn3)s2)no1`
≤ 1000 nM
